# measuredOn: PI3K p110α/p85 (Homo sapiens)
# runDescription: PI3K assay ([γ33P]ATP, PtdIns/PtdSer coated plates)
# conditionsUsed: 2 μM ATP, 1 hour at RT; read-out: IC50 (PI3Kα)
molecules and their reported IC50

Past entries and their recorded results:
CC(=O)Nc1cccc(Cn2cnc3c(-c4cccc(O)c4)nc(N4CCOCC4)nc32)c1 = < 1000 nM
O=c1[nH]c2ccc(-c3nc(N4CCOCC4)nc4c3ncn4Cc3ccccc3)cc2[nH]1 = > 5000 nM
Cc1cccc(-n2cnc3c(-c4cccc(O)c4)nc(N4CCOCC4)nc32)c1 = < 1000 nM
c1nc2cc(-c3nc(N4CCOCC4)nc4c3ncn4CC3CC3)ccc2[nH]1 = < 1000 nM
CCC(C)n1cnc2c(-c3cccc4[nH]ccc34)nc(N3CCOCC3)nc21 (stereo not drawn) = < 1000 nM

**Query** Record `Oc1cccc(-c2nc(N3CCOCC3)nc3c2ncn3CC2CC2)c1` : what is its IC50 with PI3K p110α/p85 (Homo sapiens)?
**Result** < 1000 nM

**Query** Observed IC50 on PI3K p110α/p85 (Homo sapiens) for `O=C(Cn1cnc2c(-c3cccc(O)c3)nc(N3CCOCC3)nc21)N1CCOCC1` , please.
**Result** < 1000 nM

**Query** # value lookup — system PI3K p110α/p85 (Homo sapiens), readout IC50, item `COc1ccc(Cn2cnc3c(-c4cccc(O)c4)nc(N4CCOCC4)nc32)cc1`
**Result** < 1000 nM

**Query** PI3K p110α/p85 (Homo sapiens) / IC50 / `c1ccc(Cn2cnc3c(-c4ccc5nc[nH]c5c4)nc(N4CCOCC4)nc32)cc1` : value?
**Result** 1000 to 5000 nM

----------
# measuredOn: PI3K p110α/p85 (Homo sapiens)
# runDescription: PI3K assay ([γ33P]ATP, PtdIns/PtdSer coated plates)
# conditionsUsed: 2 μM ATP, 1 hour at RT; read-out: IC50 (PI3Kα)
metric: IC50

Worked examples follow.
COc1cc(Cn2cnc3c(-c4cccc(O)c4)nc(N4CCOCC4)nc32)cc(OC)c1 [Compound 14] = < 1000 nM
Oc1cccc(-c2nc(N3CCOCC3)nc3c2ncn3Cc2ccc(C(F)(F)F)cc2)c1 [Compound 30] = 1000 to 5000 nM
c1cc(-c2nc(N3CCOCC3)nc3c2ncn3C2CCNCC2)c2cc[nH]c2c1 [Compound 87] = < 1000 nM

**Query** Form field: IC50 recorded for O=[N+]([O-])c1ccc(Cn2cnc3c(-c4cccc(O)c4)nc(N4CCOCC4)nc32)cc1 [Compound 19] with PI3K p110α/p85 (Homo sapiens) (enter value)
**Result** < 1000 nM

**Query** Give PI3K p110α/p85 (Homo sapiens) IC50 for CC(=O)Nc1ccc(Cn2cnc3c(-c4cccc(O)c4)nc(N4CCOCC4)nc32)cc1 [Compound 32]
**Result** < 1000 nM

----------
Consider the following molecules and their measured IC50 readings.
# measuredOn: PI3K p110α/p85 (Homo sapiens, UniProt P42336)
# Sequence (P42336 whole entry): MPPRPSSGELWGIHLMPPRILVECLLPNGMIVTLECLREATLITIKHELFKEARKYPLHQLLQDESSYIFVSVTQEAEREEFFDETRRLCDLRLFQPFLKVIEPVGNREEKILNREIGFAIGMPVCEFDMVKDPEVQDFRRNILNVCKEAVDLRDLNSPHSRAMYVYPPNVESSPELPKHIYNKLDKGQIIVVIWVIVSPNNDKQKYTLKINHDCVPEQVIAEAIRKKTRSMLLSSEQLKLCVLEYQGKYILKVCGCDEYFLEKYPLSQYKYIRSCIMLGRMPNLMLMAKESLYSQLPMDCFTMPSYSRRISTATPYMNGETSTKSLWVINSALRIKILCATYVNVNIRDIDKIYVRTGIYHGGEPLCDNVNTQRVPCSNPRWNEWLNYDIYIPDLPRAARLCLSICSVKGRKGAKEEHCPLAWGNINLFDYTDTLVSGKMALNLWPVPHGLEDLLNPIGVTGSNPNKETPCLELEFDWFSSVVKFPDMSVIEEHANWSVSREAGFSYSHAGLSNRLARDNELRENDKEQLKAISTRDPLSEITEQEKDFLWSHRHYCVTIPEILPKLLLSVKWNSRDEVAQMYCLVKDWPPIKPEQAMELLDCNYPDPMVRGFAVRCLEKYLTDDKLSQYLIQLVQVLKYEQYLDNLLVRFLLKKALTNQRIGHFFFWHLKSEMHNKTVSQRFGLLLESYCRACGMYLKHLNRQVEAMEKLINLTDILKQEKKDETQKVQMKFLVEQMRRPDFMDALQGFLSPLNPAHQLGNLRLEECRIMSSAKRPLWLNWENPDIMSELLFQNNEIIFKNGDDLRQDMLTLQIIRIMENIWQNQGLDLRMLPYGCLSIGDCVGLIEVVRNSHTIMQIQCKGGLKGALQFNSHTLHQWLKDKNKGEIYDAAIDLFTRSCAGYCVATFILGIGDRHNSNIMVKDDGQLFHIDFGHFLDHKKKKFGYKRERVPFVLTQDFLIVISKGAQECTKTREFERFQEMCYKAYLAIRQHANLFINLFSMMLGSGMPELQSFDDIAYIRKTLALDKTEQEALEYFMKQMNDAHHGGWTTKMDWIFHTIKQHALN
# Sequence (P27986 whole entry partner): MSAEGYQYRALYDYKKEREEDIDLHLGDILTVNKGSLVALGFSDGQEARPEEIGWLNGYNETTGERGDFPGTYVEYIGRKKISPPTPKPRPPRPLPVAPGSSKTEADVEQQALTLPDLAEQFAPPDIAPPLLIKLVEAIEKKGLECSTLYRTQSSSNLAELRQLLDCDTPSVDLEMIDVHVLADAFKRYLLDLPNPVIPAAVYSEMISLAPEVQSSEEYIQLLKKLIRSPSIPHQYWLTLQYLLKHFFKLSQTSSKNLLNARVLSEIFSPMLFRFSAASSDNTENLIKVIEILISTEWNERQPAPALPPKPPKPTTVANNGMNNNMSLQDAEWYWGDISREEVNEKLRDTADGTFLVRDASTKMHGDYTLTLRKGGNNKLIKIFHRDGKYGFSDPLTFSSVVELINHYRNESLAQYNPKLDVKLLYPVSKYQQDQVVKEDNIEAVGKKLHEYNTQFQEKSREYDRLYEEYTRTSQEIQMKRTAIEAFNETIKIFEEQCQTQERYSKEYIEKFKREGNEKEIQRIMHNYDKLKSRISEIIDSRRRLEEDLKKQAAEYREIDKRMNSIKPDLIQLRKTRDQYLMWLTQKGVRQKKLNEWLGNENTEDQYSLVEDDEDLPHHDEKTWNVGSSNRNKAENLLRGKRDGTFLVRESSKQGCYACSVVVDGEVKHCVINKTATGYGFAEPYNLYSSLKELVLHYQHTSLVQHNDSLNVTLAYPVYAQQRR
# runDescription: PI3K assay ([γ33P]ATP, PtdIns/PtdSer coated plates)
# conditionsUsed: 2 μM ATP, 1 hour at RT; read-out: IC50 (PI3Kα)

Below are worked cases with known answers.
Oc1cccc(-c2nc(N3CCOCC3)nc3c2ncn3C2CCCCO2)c1 (stereo not shown) = < 1000 nM
CS(=O)(=O)N1CCC(n2cnc3c(-c4cccc5[nH]ccc45)nc(N4CCOCC4)nc32)CC1 = < 1000 nM
CCC(C)n1cnc2c(-c3cccc4[nH]ncc34)nc(N3CCOCC3)nc21 (stereo not shown) = < 1000 nM
CC(C)n1cnc2c(-c3ccc(N)nc3)nc(N3CCOCC3)nc21 = < 1000 nM

**Query** Please give the measured IC50 for this molecule: `OCc1cccc(-c2nc(N3CCOCC3)nc3c2ncn3Cc2ccccc2)c1`
**Result** < 1000 nM

**Query** Data request, read-out IC50, for CCC(C)n1c(-c2ccccc2)nc2c(-c3cccc(O)c3)nc(N3CCOCC3)nc21 (stereo not shown)
**Result** < 1000 nM

**Query** I have this molecule here, `COC(=O)c1ccc(Cn2cnc3c(-c4cccc(O)c4)nc(N4CCOCC4)nc32)cc1` , and I need its recorded IC50.
**Result** < 1000 nM
